- Tested on: SGC-7901
- Run description: Antiproliferative activity against human SGC-7901 cells assessed as inhibition of cell growth incubated for 72 hrs by MTT assay
- Assay type: functional, cell-based
- Experimental parameters: SGC-7901, 72 h
Param label: returns Fulfilled when IC50 < 7 µM, returns Not fulfilled otherwise, including exact equality.

Worked set:
# Structure as smiles, Assigned class
data = [
    ("COc1cc(-c2ccnc3ccc(-c4ccncc4)cc23)cc(OC)c1OC", "Not fulfilled"),
    ("COc1cc(-c2ccnc3ccc(-c4ccc5ccccc5c4)cc23)cc(OC)c1OC", "Fulfilled"),
]

Consider the additional molecule presented here.
Quick check: IC50 of "COc1cccc(-c2ccc3nccc(-c4cc(OC)c(OC)c(OC)c4)c3c2)c1" under 7 µM?
Not fulfilled

Measured values drawn from ChEMBL document CHEMBL6127077 for this set.
